Below, each entry is listed alongside its reported pIC50.
testTarget: p38 MAP kinase (Homo sapiens, UniProt Q16539)
Sequence (Q16539 whole entry): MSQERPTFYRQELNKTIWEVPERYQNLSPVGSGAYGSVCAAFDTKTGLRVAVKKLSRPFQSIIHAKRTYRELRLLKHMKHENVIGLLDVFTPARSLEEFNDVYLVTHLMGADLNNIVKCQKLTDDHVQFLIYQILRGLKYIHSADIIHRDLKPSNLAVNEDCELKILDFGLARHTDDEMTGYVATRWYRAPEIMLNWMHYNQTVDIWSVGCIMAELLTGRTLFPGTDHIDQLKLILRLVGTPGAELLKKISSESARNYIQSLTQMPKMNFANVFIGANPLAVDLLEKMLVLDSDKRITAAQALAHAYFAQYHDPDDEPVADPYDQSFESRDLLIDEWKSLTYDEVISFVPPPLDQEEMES
assayRemarks: p38 MAP Kinase Assay (33P incorporation into myelin basic protein, filter plate)
Format: biochemical
protocolConditions: Table 2; MKK6-activated p38, MBP substrate, 50 minutes
pIC50: −log10 of the molar value.
endpoint: pIC50

1. CC(C)(CO)NC(=O)Nc1cnc(OCc2c(Cl)cccc2Cl)cn1 ... > 5.70
2. CC(C)(C)c1cc(NC(=O)Nc2ccc(F)c(COc3cnccn3)c2)n(-c2ccc(S(C)(=O)=O)cc2)n1 ... > 5.70
3. O=C(Nc1ccc(Cl)c(COc2cnccn2)c1)c1ccnc(N2CCOCC2)c1 ... > 5.70
4. Cc1nc2sccn2c1C(=O)Nc1ccc(F)c(COc2cnccn2)c1 ... > 5.70
5. Nc1cnc(OCc2c(Cl)cccc2Cl)cn1 ... > 3.70
6. CC(C)(C)c1cccc(C(=O)Nc2ccc(F)c(COc3cnccn3)c2)c1 ... > 5.70
7. Nc1ncc(OCc2cccc3ccccc23)nc1Br ... > 3.00
8. O=C(Nc1ccc(F)c(COc2cnccn2)c1)Nc1cc(C2CCOCC2)nn1-c1ccc(F)cc1 ... > 5.70
9. Nc1ncc(OCc2ccccc2)nc1Br ... > 3.00

###

Below, each entry is listed alongside its reported IC50.
testTarget: p38 MAP kinase (Homo sapiens, UniProt Q16539)
assayRemarks: p38 MAP Kinase Assay (33P incorporation into myelin basic protein, filter plate)
Assay type: biochemical
protocolConditions: Table 2; MKK6-activated p38, MBP substrate, 50 minutes
endpoint: IC50

1) CC(C)(C)c1cc(NC(=O)Nc2ccc(F)c(COc3cnccn3)c2)n(-c2ccc(Cl)cc2)n1 [Compound 127] ... < 2 µM
2) CC(C)(C)OC(=O)Nc1ccc(Cl)c(COc2cnccn2)c1 [Compound 89] ... < 1000 µM
3) O=C(Nc1ccc(F)c(COc2cnccn2)c1)Nc1nnc(-c2ccccc2)s1 [Compound 115] ... < 200 µM
4) Cc1noc(-c2ccccc2)c1C(=O)Nc1ccc(F)c(COc2cnccn2)c1 [Compound 122] ... < 200 µM

###

testTarget: p38 MAP kinase (Homo sapiens)
assayRemarks: p38 MAP Kinase Assay (33P incorporation into myelin basic protein, filter plate)
Type: biochemical
protocolConditions: Table 1; MKK6-activated p38, MBP substrate, 50 minutes
pIC50: −log10 of the molar value.
Below, each entry is listed alongside its reported pIC50.
endpoint: pIC50

1. c1cc(COc2cccnc2)cc(COc2cccnc2)c1 ... > 3.00
2. Clc1ncccc1OCc1ccccc1 ... > 2.70
3. Nc1ncccc1OCc1cccc(Cl)c1F ... > 3.00
4. CC(C)(C)c1cccc(C(=O)Nc2ccc(Cl)c(COc3cccnc3)c2)c1 ... > 5.70
5. Nc1ncccc1OCc1c(F)cccc1Cl ... > 3.00
6. Nc1ncccc1OCc1ccc(F)c(F)c1 ... > 3.00
7. Nc1ccncc1OCc1cccc2ccccc12 ... > 3.00
8. Nc1ncccc1OCc1ccc(Cl)cc1Cl ... > 3.00
9. O=C(Nc1ccccc1)Nc1ccc(Cl)c(COc2cccnc2)c1 ... > 4.70
10. OCCNc1ccc(OCc2ccccc2)cn1 ... > 3.70

###

Below, each entry is listed alongside its reported pIC50.
testTarget: p38 MAP kinase (Homo sapiens)
assayRemarks: p38 MAP Kinase Assay (33P incorporation into myelin basic protein, filter plate)
Format: biochemical
protocolConditions: Table 2; MKK6-activated p38, MBP substrate, 50 minutes
pIC50: −log10 of the molar value.
endpoint: pIC50

1) Clc1cccc(Cl)c1COc1cnc(NC2CCOCC2)cn1 ... > 3.70
2) CC(C)(C)c1cc(NC(=O)Oc2cccc(COc3cnccn3)c2)n(-c2ccccc2)n1 ... > 3.70
3) O=C(Nc1ccc(F)c(COc2cnccn2)c1)Nc1nc(-c2ccccc2)cs1 ... > 4.70
4) O=C(CC1CCOCC1)Nc1cnc(OCc2c(Cl)cccc2Cl)cn1 ... > 3.70
5) CC(C)(C)c1ccc(-n2nc(C3CC3)cc2NC(=O)Nc2ccc(F)c(COc3cnccn3)c2)cc1 ... > 3.70
6) O=C(Nc1ccccc1)Oc1cccc(COc2cnccn2)c1 ... > 3.70
7) O=C(Nc1ccc(F)c(COc2cnccn2)c1)c1ccc2ccccc2c1 ... > 4.70
8) Clc1cnc(OCc2c(Cl)cccc2Cl)cn1 ... > 3.00
9) CCNC(=O)c1cnc(OCc2c(Cl)cccc2Cl)cn1 ... > 3.00
10) CC(C)(C)c1cc(NC(=O)Nc2ccc(F)c(COc3cnccn3)c2)n(-c2nc3ccccc3s2)n1 ... > 4.70
11) Nc1nccnc1OCc1cccc2ccccc12 ... > 3.00
12) CC(C)(CO)C(=O)Nc1cnc(OCc2c(Cl)cccc2Cl)cn1 ... > 3.70
13) Nc1cccc(COc2cncc(Cl)n2)c1 ... > 3.00
14) CC(CO)(CO)NC(=O)c1cnc(OCc2c(Cl)cccc2Cl)cn1 ... > 5.70
15) CC(C)(C)c1cc(C(=O)Nc2ccc(F)c(COc3cnccn3)c2)n(Cc2ccc(F)cc2)n1 ... > 4.70
16) Clc1cccc(Cl)c1COc1cnccn1 ... > 3.70
17) Cc1nc(-c2cccc(C(=O)Nc3ccc(F)c(COc4cnccn4)c3)c2)cs1 ... > 5.70
18) C=CS(=O)(=O)Nc1cnc(OCc2c(Cl)cccc2Cl)cn1 ... > 3.70
19) O=C(Nc1ccc(F)c(COc2cnccn2)c1)Nc1nnc(Cc2ccccc2)s1 ... > 5.70
